- System: Pr. mirabilis, IF03849
- Assay Details: antimicrobial activity, MIC, standard process of Japan Society of Chemotherapy
- Format: cell-based
- Run Parameters: Pr. mirabilis
Measured Metric: minimum growth inhibitory concentration (MIC) (µg/mL)
Write down the numeric answer in µg/mL and omit the unit.

// below: answered compounds
Compound: CCn1cc(C(=O)O)c(=O)c2cc(F)c(N3CCC(C(C)N)C3)c(F)c21 (single isomer, unassigned) [Example 4]
Result Value: 0.20
//
Compound: CC(N)C1CCN(c2nc3c(cc2F)c(=O)c(C(=O)O)cn3C2CC2)C1 (centres unmarked) [Example 18]
Result Value: 0.20
//
Compound: CCC(N)C1CCN(c2c(F)cc3c(=O)c(C(=O)O)cn(C4CC4)c3c2F)C1 (centres unmarked) [Example 22]
Result Value: 0.10
//
Compound: CNC(C)C1CCN(c2c(F)cc3c(=O)c(C(=O)O)cn(C4CC4)c3c2F)C1 (single isomer, unassigned) [Example 6]
Result Value: 0.20
//
Compound: CC(N)C1CCN(c2nc3c(cc2F)c(=O)c(C(=O)O)cn3C2CC2)C1 (centres unmarked) [Example 5]
Result Value: 0.39

Then this compound:
Q: For CC(N)C1CCN(c2nc3c(cc2F)c(=O)c(C(=O)O)cn3C2CC2)C1 (centres unmarked) [Example 19] , what is its reported minimum growth inhibitory concentration (MIC)?
Ans: 0.10
